Target: T1, Human CD3eg linker (human)
T1 construct: Single-chain construct; also called recombinant human CD3
T1 chain: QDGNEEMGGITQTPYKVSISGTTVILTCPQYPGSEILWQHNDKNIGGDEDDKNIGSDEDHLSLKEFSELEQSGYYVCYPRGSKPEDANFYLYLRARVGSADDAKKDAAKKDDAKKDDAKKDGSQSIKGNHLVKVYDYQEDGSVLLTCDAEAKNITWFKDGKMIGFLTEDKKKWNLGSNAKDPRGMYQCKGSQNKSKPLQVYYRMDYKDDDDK
Assay: SPR; fold vs parent H183/L072
Listed next: entries and their corresponding fold change of affinity.
Number first, unit second: that is the form wanted.

binder	value
H183/L072 VL R54P (antibody, name in Kabat numbering, V domains shown) VH: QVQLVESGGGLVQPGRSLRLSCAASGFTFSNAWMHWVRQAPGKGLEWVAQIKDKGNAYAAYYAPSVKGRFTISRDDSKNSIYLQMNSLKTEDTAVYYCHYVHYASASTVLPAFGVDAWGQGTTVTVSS VL: DIVMTQSPLSLPVTPGEPASISCQASQELVHMNRNTYLHWYQQKPGQAPRLLIYKVSNPFPGVPDRFSGSGSGTDFTLKISRVEAEDVGVYYCAQGTSVPFTFGQGTKLEIK	0.9 fold

Which fold change of affinity reading was recorded for the binder H183/L072 VL M27eR (antibody, name in Kabat numbering, V domains shown) VH: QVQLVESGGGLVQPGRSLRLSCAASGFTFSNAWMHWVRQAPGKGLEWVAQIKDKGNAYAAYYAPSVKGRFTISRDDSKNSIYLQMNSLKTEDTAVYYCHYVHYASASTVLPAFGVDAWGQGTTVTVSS VL: DIVMTQSPLSLPVTPGEPASISCQASQELVHRNRNTYLHWYQQKPGQAPRLLIYKVSNRFPGVPDRFSGSGSGTDFTLKISRVEAEDVGVYYCAQGTSVPFTFGQGTKLEIK ?
1.4 fold

Recorded fold change of affinity of H183/L072 VL N53T (antibody, name in Kabat numbering, V domains shown) VH: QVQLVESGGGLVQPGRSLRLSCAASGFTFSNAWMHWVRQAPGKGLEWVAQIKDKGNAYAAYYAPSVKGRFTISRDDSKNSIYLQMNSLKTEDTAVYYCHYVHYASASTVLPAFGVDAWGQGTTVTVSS VL: DIVMTQSPLSLPVTPGEPASISCQASQELVHMNRNTYLHWYQQKPGQAPRLLIYKVSTRFPGVPDRFSGSGSGTDFTLKISRVEAEDVGVYYCAQGTSVPFTFGQGTKLEIK , please.
0.4 fold

# input binder: H183/L072 VL L33Q (antibody, name in Kabat numbering, V domains shown) VH: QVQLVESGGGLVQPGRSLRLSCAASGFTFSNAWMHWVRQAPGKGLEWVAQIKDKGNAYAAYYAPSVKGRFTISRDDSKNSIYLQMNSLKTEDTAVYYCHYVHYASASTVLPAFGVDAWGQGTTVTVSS VL: DIVMTQSPLSLPVTPGEPASISCQASQELVHMNRNTYQHWYQQKPGQAPRLLIYKVSNRFPGVPDRFSGSGSGTDFTLKISRVEAEDVGVYYCAQGTSVPFTFGQGTKLEIK ; wanted: its fold change of affinity
1.7 fold

Looking for the measured fold change of affinity of H183/L072 VL N53M (antibody, name in Kabat numbering, V domains shown) VH: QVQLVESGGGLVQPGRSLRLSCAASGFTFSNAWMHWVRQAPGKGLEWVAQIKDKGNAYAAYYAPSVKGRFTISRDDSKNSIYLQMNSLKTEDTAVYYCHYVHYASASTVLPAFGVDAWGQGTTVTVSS VL: DIVMTQSPLSLPVTPGEPASISCQASQELVHMNRNTYLHWYQQKPGQAPRLLIYKVSMRFPGVPDRFSGSGSGTDFTLKISRVEAEDVGVYYCAQGTSVPFTFGQGTKLEIK , can you help?
0.9 fold
